Test system: SW-480 human colon adenocarcinoma (ATCC CCL-228)
Test: Growth inhibition assay (MTT), SW-480
Type: cell-based
Settings: Homo sapiens, SW480, 120 h, read-out: IC50 SW-480

{"compound": "CC[C@H](C)[C@H](NC(=O)[C@H]1CCCCN1C)C(=O)N(COC(=O)CC(C)C)[C@H](C[C@@H](OC(C)=O)c1nc(C(=O)NCCCC(=O)O)cs1)C(C)C [Analogue 3]", "target": "SW-480 human colon adenocarcinoma (ATCC CCL-228)", "IC50": "0.91 ng/mL"}
{"compound": "CC[C@H](C)[C@H](NC(C)=O)C(=O)N(COC(=O)CC(C)C)[C@H](C[C@@H](OC(C)=O)c1nc(C(=O)N[C@@H](Cc2ccccc2)C[C@H](C)C(=O)O)cs1)C(C)C [Analogue 7]", "target": "SW-480 human colon adenocarcinoma (ATCC CCL-228)", "IC50": "15 ng/mL"}
{"compound": "CC[C@H](C)[C@H](NC(=O)[C@H]1CCCCN1C)C(=O)N(C)[C@H](C[C@@H](OC(C)=O)c1nc(C(=O)N[C@@H](Cc2ccccc2)C[C@H](C)C(=O)O)cs1)C(C)C (stereo in doubt) [Analogue 10]", "target": "SW-480 human colon adenocarcinoma (ATCC CCL-228)", "IC50": "0.016 ng/mL"}
{"compound": "CC[C@H](C)[C@H](NC(=O)CN(C)C)C(=O)N(COC(=O)CC(C)C)[C@H](C[C@@H](OC(C)=O)c1nc(C(=O)N[C@@H](Cc2ccccc2)C[C@H](C)C(=O)O)cs1)C(C)C [Analogue 6]", "target": "SW-480 human colon adenocarcinoma (ATCC CCL-228)", "IC50": "0.01 ng/mL"}
{"compound": "CC[C@H](C)[C@H](N=[N+]=[N-])C(=O)N(COC(=O)CC(C)C)[C@H](C[C@@H](OC(C)=O)c1nc(C(=O)N[C@@H](Cc2ccccc2)C[C@H](C)C(=O)O)cs1)C(C)C [Analogue 8]", "target": "SW-480 human colon adenocarcinoma (ATCC CCL-228)", "IC50": "8.8 ng/mL"}
{"compound": "CC[C@H](C)[C@H](NC(=O)[C@H]1CCCCN1C)C(=O)N(COC(=O)CC(C)C)[C@H](C[C@@H](OC(C)=O)c1nc(C(=O)NCCc2ccccc2)cs1)C(C)C [Analogue 2]", "target": "SW-480 human colon adenocarcinoma (ATCC CCL-228)", "IC50": "0.3 ng/mL"}
{"compound": "CC[C@H](C)[C@H](NC(=O)[C@H]1CCCCN1C)C(=O)N(C)[C@H](C[C@@H](OC(C)=O)c1nc(C(=O)NC)cs1)C(C)C (stereo in doubt) [Analogue 11]", "target": "SW-480 human colon adenocarcinoma (ATCC CCL-228)", "IC50": "0.5 ng/mL"}
{"compound": "CC[C@H](C)[C@H](NC(=O)[C@H]1CCCCN1C)C(=O)N(COC(=O)CC(C)C)[C@H](C[C@@H](OC(C)=O)c1nc(C(=O)NC)cs1)C(C)C [Analogue 4]", "target": "SW-480 human colon adenocarcinoma (ATCC CCL-228)", "IC50": "0.35 ng/mL"}
{"compound": "CC[C@H](C)[C@H](NC(=O)[C@H]1CCCCN1C)C(=O)N(COC(=O)CC(C)C)[C@H](C[C@@H](OC(C)=O)c1nc(C(=O)O)cs1)C(C)C [Analogue 5]", "target": "SW-480 human colon adenocarcinoma (ATCC CCL-228)", "IC50": "0.35 ng/mL"}

All figures here come from patent US20110263650A1.
